Tested on: ATP;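 also: ATP exposure 15 min at 22 °C before imaging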
protocol: switch fluorescence ratio, 500 uM ATP over buffer (Cy3 cluster intensity, sum of 5 cycles each) (fold (ratio)); higher = stronger signal-on switching upon ATP binding; sequences stand for … in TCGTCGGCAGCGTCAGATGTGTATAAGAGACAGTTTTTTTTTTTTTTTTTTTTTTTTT…TC
measurement-setup: aptamer strand: ATP DNA aptamer (quencher-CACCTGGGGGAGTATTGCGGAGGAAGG + anchor), 100 nM annealed; ATP concentration: 500 uM

macromolecule-sequence: TAATTGGACG
switch fluorescence ratio: 1.12

macromolecule-sequence: GCGAGCGTCC
switch fluorescence ratio: 1.02

macromolecule-sequence: TCTTGATCTA
switch fluorescence ratio: 1.02

macromolecule-sequence: CCAGGGCGGG
switch fluorescence ratio: 0.99

macromolecule-sequence: ATGTTATACT
switch fluorescence ratio: 1.02

macromolecule-sequence: TTGCCGGGGT
switch fluorescence ratio: 1.1

macromolecule-sequence: GCCCGTATGC
switch fluorescence ratio: 1.07

macromolecule-sequence: AGTACGATTG
switch fluorescence ratio: 1

macromolecule-sequence: AATTTCGGAT
switch fluorescence ratio: 0.959

macromolecule-sequence: TGGGTGTCGC
switch fluorescence ratio: 0.967

macromolecule-sequence: GGTTTAGTTG
switch fluorescence ratio: 0.974

macromolecule-sequence: CAGCTGGCGC
switch fluorescence ratio: 0.995

macromolecule-sequence: GTTGGGGGTA
switch fluorescence ratio: 0.999

macromolecule-sequence: ACTTGGCAAA
switch fluorescence ratio: 1.16

macromolecule-sequence: GAGGGGTTAC
switch fluorescence ratio: 1.01

macromolecule-sequence: GTAATTAATT
switch fluorescence ratio: 0.978

macromolecule-sequence: GTTTGGGTAG
switch fluorescence ratio: 1.02

macromolecule-sequence: TCTGGATTGG
switch fluorescence ratio: 0.961

macromolecule-sequence: GGGGGGCGAC
switch fluorescence ratio: 1.02

macromolecule-sequence: AGTTTTGAAG
switch fluorescence ratio: 0.991

---

System: ATP;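 also: ATP exposure 15 min at 22 °C before imaging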
protocol: switch fluorescence ratio, 500 uM ATP over buffer (Cy3 cluster intensity, sum of 5 cycles each) (fold (ratio)); higher = stronger signal-on switching upon ATP binding; sequences stand for … in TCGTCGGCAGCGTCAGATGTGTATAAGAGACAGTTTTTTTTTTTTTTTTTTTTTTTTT…TC
measurement-setup: aptamer strand: ATP DNA aptamer (quencher-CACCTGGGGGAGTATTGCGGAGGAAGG + anchor), 100 nM annealed; ATP concentration: 500 uM
Consider the following sequences and their measured switch fluorescence ratio readings.
property-label: switch fluorescence ratio

macromolecule-sequence: TTGTGAGTTT
property-label: switch fluorescence ratio
endpoint-value: 1
//
macromolecule-sequence: TTTGATTTCG
property-label: switch fluorescence ratio
endpoint-value: 1.01
//
macromolecule-sequence: GCAGGGGGTA
property-label: switch fluorescence ratio
endpoint-value: 0.999
//
macromolecule-sequence: GCAGATTTGG
property-label: switch fluorescence ratio
endpoint-value: 0.978
//
macromolecule-sequence: GTTTGCGCAG
property-label: switch fluorescence ratio
endpoint-value: 1.02
//
macromolecule-sequence: GTATTTCTTA
property-label: switch fluorescence ratio
endpoint-value: 0.974
//
macromolecule-sequence: AACGTTTTCT
property-label: switch fluorescence ratio
endpoint-value: 0.991
//
macromolecule-sequence: TAACGGCATC
property-label: switch fluorescence ratio
endpoint-value: 1.08
//
macromolecule-sequence: CATAAGGGTG
property-label: switch fluorescence ratio
endpoint-value: 1.09
//
macromolecule-sequence: GGCCTTCGGG
property-label: switch fluorescence ratio
endpoint-value: 0.972
//
macromolecule-sequence: TTGGAATGT
property-label: switch fluorescence ratio
endpoint-value: 1.03
//
macromolecule-sequence: AAGTTGACCG
property-label: switch fluorescence ratio
endpoint-value: 1.04
//
macromolecule-sequence: AGGTTTGACA
property-label: switch fluorescence ratio
endpoint-value: 1.03
//
macromolecule-sequence: GGGATATTTT
property-label: switch fluorescence ratio
endpoint-value: 0.977
//
macromolecule-sequence: GTGGGGAAAA
property-label: switch fluorescence ratio
endpoint-value: 0.994
//
macromolecule-sequence: TTCTGGCGCG
property-label: switch fluorescence ratio
endpoint-value: 0.984
//
macromolecule-sequence: GACTCTTGCG
property-label: switch fluorescence ratio
endpoint-value: 0.964
//
macromolecule-sequence: ATTTCGATTA
property-label: switch fluorescence ratio
endpoint-value: 0.997
//
macromolecule-sequence: ATTGAGGGTT
property-label: switch fluorescence ratio
endpoint-value: 0.985
//
macromolecule-sequence: GGGACGGGC
property-label: switch fluorescence ratio
endpoint-value: 0.933
//
macromolecule-sequence: CGTTCTGTTT
property-label: switch fluorescence ratio
endpoint-value: 1

---

Test system: ATP;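 also: ATP exposure 15 min at 22 °C before imaging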
protocol: switch fluorescence ratio, 500 uM ATP over buffer (Cy3 cluster intensity, sum of 5 cycles each) (fold (ratio)); higher = stronger signal-on switching upon ATP binding; sequences stand for … in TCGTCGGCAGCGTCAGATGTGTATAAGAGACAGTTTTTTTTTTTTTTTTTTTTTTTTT…TC
measurement-setup: aptamer strand: ATP DNA aptamer (quencher-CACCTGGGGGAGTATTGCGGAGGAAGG + anchor), 100 nM annealed; ATP concentration: 500 uM
The threshold is inclusive: switch fluorescence ratio of exactly 1 counts as Fulfilled; values below receive Not fulfilled.

macromolecule-sequence: TCGTTTGGTA
class-label: Not fulfilled
//
macromolecule-sequence: TAATGGGGCC
class-label: Fulfilled
//
macromolecule-sequence: ATAGTAAGCC
class-label: Fulfilled
//
macromolecule-sequence: TGAGTTTCTG
class-label: Not fulfilled
//
macromolecule-sequence: AGGGGGCAGA
class-label: Fulfilled
//
macromolecule-sequence: GACGTTCTGT
class-label: Fulfilled

---

Tested on: ATP;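 also: ATP exposure 15 min at 22 °C before imaging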
protocol: switch fluorescence ratio, 500 uM ATP over buffer (Cy3 cluster intensity, sum of 5 cycles each) (fold (ratio)); higher = stronger signal-on switching upon ATP binding; sequences stand for … in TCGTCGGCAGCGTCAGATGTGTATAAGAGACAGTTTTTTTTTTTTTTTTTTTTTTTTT…TC
measurement-setup: aptamer strand: ATP DNA aptamer (quencher-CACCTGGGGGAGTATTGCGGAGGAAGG + anchor), 100 nM annealed; ATP concentration: 500 uM

macromolecule-sequence: CGATTTGACT
switch fluorescence ratio: 1.02
--
macromolecule-sequence: ACGGGCGACG
switch fluorescence ratio: 1.02
--
macromolecule-sequence: ATGAAGAGAG
switch fluorescence ratio: 0.99
--
macromolecule-sequence: TCTGTGTACG
switch fluorescence ratio: 1.04
--
macromolecule-sequence: AAATTGATAT
switch fluorescence ratio: 1.02
--
macromolecule-sequence: GGGGAAGAAT
switch fluorescence ratio: 0.978
--
macromolecule-sequence: AGAGGTAGGG
switch fluorescence ratio: 0.984
--
macromolecule-sequence: GGATGTTAGT
switch fluorescence ratio: 1
--
macromolecule-sequence: AAGTGAAATT
switch fluorescence ratio: 1.02
--
macromolecule-sequence: AATATTTGGC
switch fluorescence ratio: 1
--
macromolecule-sequence: GATCATCGGG
switch fluorescence ratio: 0.995
--
macromolecule-sequence: GAGGTTGCGG
switch fluorescence ratio: 0.96
--
macromolecule-sequence: CAGTTTACCG
switch fluorescence ratio: 1.03
--
macromolecule-sequence: AAGGCGTTTT
switch fluorescence ratio: 1.01
--
macromolecule-sequence: TTTGTTTCGT
switch fluorescence ratio: 1.03
--
macromolecule-sequence: TAGGGGATAT
switch fluorescence ratio: 0.964
--
macromolecule-sequence: CTAGCCTGCT
switch fluorescence ratio: 0.994
--
macromolecule-sequence: TGTTAGGGGG
switch fluorescence ratio: 1.01
--
macromolecule-sequence: AAGAGCAGGG
switch fluorescence ratio: 0.975
--
macromolecule-sequence: GGGAGGGGCT
switch fluorescence ratio: 1.02
--
macromolecule-sequence: CGCCTCGGGC
switch fluorescence ratio: 1.02
--
macromolecule-sequence: TATGCTTATT
switch fluorescence ratio: 1
--
macromolecule-sequence: GGAACCTTGG
switch fluorescence ratio: 1.02
--
macromolecule-sequence: GGGTAAAAAA
switch fluorescence ratio: 1.02
--
macromolecule-sequence: ATTTAAGCTT
switch fluorescence ratio: 1.07
--
macromolecule-sequence: CAGAGGGAGG
switch fluorescence ratio: 1.02
--
macromolecule-sequence: GATAGAAGGT
switch fluorescence ratio: 1.04
--
macromolecule-sequence: AGGTGTGAGC
switch fluorescence ratio: 1.03
--
macromolecule-sequence: GGGTTTCATG
switch fluorescence ratio: 0.995
--
macromolecule-sequence: CGGCATTGGG
switch fluorescence ratio: 1.02
--
macromolecule-sequence: TTGGGGGGG
switch fluorescence ratio: 1.02
--
macromolecule-sequence: GCAGACGGTG
switch fluorescence ratio: 1.05
--
macromolecule-sequence: GGGGGGAGCG
switch fluorescence ratio: 1
--
macromolecule-sequence: ACTTTCGGGA
switch fluorescence ratio: 0.995
--
macromolecule-sequence: AACGGAGTGC
switch fluorescence ratio: 1
--
macromolecule-sequence: GGTGGGGATT
switch fluorescence ratio: 1.07
--
macromolecule-sequence: TTAGTACGAT
switch fluorescence ratio: 1.02
--
macromolecule-sequence: CCCGGGATAT
switch fluorescence ratio: 1.06
--
macromolecule-sequence: ATGTGGTACT
switch fluorescence ratio: 0.979
--
macromolecule-sequence: TTGGGCTCAG
switch fluorescence ratio: 0.982
--
macromolecule-sequence: TCGGTGGGGC
switch fluorescence ratio: 1.01
--
macromolecule-sequence: ATGCGAAGGT
switch fluorescence ratio: 1.04
--
macromolecule-sequence: AGTTTCGGGA
switch fluorescence ratio: 1
--
macromolecule-sequence: TAGGTTTGCC
switch fluorescence ratio: 1.08
--
macromolecule-sequence: TTTTGGGGGA
switch fluorescence ratio: 0.999
--
macromolecule-sequence: GCCCATTTTT
switch fluorescence ratio: 0.978
--
macromolecule-sequence: ATGTGTTTGC
switch fluorescence ratio: 0.99
--
macromolecule-sequence: CATTGTAAGA
switch fluorescence ratio: 0.962
--
macromolecule-sequence: GCCGATGCTG
switch fluorescence ratio: 0.978
--
macromolecule-sequence: CAGTTTCGTT
switch fluorescence ratio: 1.02
--
macromolecule-sequence: GGTGAACAGT
switch fluorescence ratio: 0.971
--
macromolecule-sequence: ATTGATATTT
switch fluorescence ratio: 0.998
--
macromolecule-sequence: ATCCTGGATA
switch fluorescence ratio: 1
--
macromolecule-sequence: TACATAGGTT
switch fluorescence ratio: 1.05
--
macromolecule-sequence: TTCGTTGGCT
switch fluorescence ratio: 1.16
--
macromolecule-sequence: CGGTACCGTG
switch fluorescence ratio: 0.984
--
macromolecule-sequence: AAGAGGGCTT
switch fluorescence ratio: 0.994
--
macromolecule-sequence: TTTTTTCAGA
switch fluorescence ratio: 0.975
--
macromolecule-sequence: CCAGTTCGGA
switch fluorescence ratio: 0.981
--
macromolecule-sequence: CAATAATTTA
switch fluorescence ratio: 1
--
macromolecule-sequence: GCCTTTTTTA
switch fluorescence ratio: 0.996
--
macromolecule-sequence: GTTATTGGTA
switch fluorescence ratio: 1.01
--
macromolecule-sequence: GGGGAGGAGT
switch fluorescence ratio: 1.01
--
macromolecule-sequence: AAAATGAGCC
switch fluorescence ratio: 1.04
--
macromolecule-sequence: GCGTATCGCG
switch fluorescence ratio: 0.985
--
macromolecule-sequence: GGGGGGTCCA
switch fluorescence ratio: 1.01
--
macromolecule-sequence: GTAGCTTATC
switch fluorescence ratio: 2.08
--
macromolecule-sequence: TTGGGAATAC
switch fluorescence ratio: 3.23
--
macromolecule-sequence: GTTGTGCGGG
switch fluorescence ratio: 1.02
--
macromolecule-sequence: TTTTTCTCGG
switch fluorescence ratio: 0.992
--
macromolecule-sequence: GACGTATATG
switch fluorescence ratio: 0.973
--
macromolecule-sequence: TCCAGGGCGA
switch fluorescence ratio: 1.16
--
macromolecule-sequence: TGCGGAAAAC
switch fluorescence ratio: 1.72
--
macromolecule-sequence: TTTTTTGCCA
switch fluorescence ratio: 1.01
--
macromolecule-sequence: TCAGGGGGGT
switch fluorescence ratio: 1.11
--
macromolecule-sequence: TTGACGAGTT
switch fluorescence ratio: 1.06
--
macromolecule-sequence: TTTTACGGTT
switch fluorescence ratio: 1.03
--
macromolecule-sequence: TGAGAGACGG
switch fluorescence ratio: 0.968
--
macromolecule-sequence: ATTATGTGTC
switch fluorescence ratio: 0.959
--
macromolecule-sequence: ATTCACAGTT
switch fluorescence ratio: 1.03
--
macromolecule-sequence: GCGCCAAGGA
switch fluorescence ratio: 1.08
--
macromolecule-sequence: ATATAAATTT
switch fluorescence ratio: 1
--
macromolecule-sequence: CTGTGGCCGG
switch fluorescence ratio: 0.967
--
macromolecule-sequence: GTGGAAATCA
switch fluorescence ratio: 1.01
--
macromolecule-sequence: TGTCGGGCCT
switch fluorescence ratio: 1.03
--
macromolecule-sequence: CCGGGCCATC
switch fluorescence ratio: 2.3

Values compiled from the supplement of paper PMC10126150.
